We begin with a simple list: items and their reported Log10TGI50 Delta.
# Tested on: 60 cell line panel
# Type: cell-based
# runParameters: 60 cell line panel
Number only, please.

Query string: Query Log10TGI50 Delta for C[C@@H]1CC[C@H]2[C@@H](C)C(CC(O)(CC3OC4O[C@]5(C)CC[C@H]6[C@H](C)CC[C@@H]([C@H]3C)C46OO5)c3ccc(C(=O)O)cc3)OC3O[C@]4(C)CCC1C32OO4 (some centres unmarked) [Compound 11b]
Result string: 3.18

Query string: Query Log10TGI50 Delta for CC1CCC2C(C)C(CC(COC(=O)c3cc[n+]([O-])cc3)CC3OC4OC5(C)CCC6C(C)CCC(C3C)C46OO5)OC3OC4(C)CCC1C32OO4 (centres unmarked)
Result string: 3.15

Query string: Query Log10TGI50 Delta for CC1CCC2C(C)C(CC(CO)CC3OC4OC5(C)CCC6C(C)CCC(C3C)C46OO5)OC3OC4(C)CCC1C32OO4 (centres unmarked)
Result string: 2.31

Query string: Query Log10TGI50 Delta for C[C@@H]1CC[C@H]2[C@@H](C)C(CC(O)(COC(=O)CCC(=O)O)CC3OC4O[C@]5(C)CC[C@H]6[C@H](C)CC[C@@H]([C@H]3C)C46OO5)OC3O[C@]4(C)CCC1C32OO4 (some centres unmarked) [Compound 9, tertiary alcohol primary succinate ester]
Result string: 3.58

More entries:
Query string: Query Log10TGI50 Delta for CC1CCC2C(C)C(CC(O)(CC3OC4OC5(C)CCC6C(C)CCC(C3C)C46OO5)CS(=O)(=O)c3ccc(C(=O)O)cc3)OC3OC4(C)CCC1C32OO4 (centres unmarked) [Compound 10c]
Result string: 2.79
